// cross-study collection: IC50 for Caspase-1 (Homo sapiens)
Give bare numbers, in µM.

Worked cases, answers included:
O=CC(CC(=O)O)NS(=O)(=O)c1ccccc1Sc1ccccc1 (stereo not shown) :: 21
COC(=O)CC1CCCC2CC(=O)N(OCC(=O)C(CC(=O)O)NC(=O)C(C)NC(=O)C(NC(=O)OCc3ccccc3)C(C)C)C12 (stereo not shown) :: 0.026
O=CC(CC(=O)O)NS(=O)(=O)c1ccccc1Oc1ccccc1 (stereo not shown) :: 24

Given the compound `C[C@H](NC(=O)c1cc(-c2cccc(Cl)c2)on1)C(=O)N[C@@H](CC(=O)O)C(=O)COc1c(F)c(F)cc(F)c1F` , what is its reported IC50?
0.0066

---

// cross-study collection: IC50 for Caspase-1 (Homo sapiens, UniProt P29466)
One number for each entry, in µM.

Worked cases, answers included:
O=C[C@H](CC(=O)O)NS(=O)(=O)c1ccccc1Cc1ccccc1 :: 37
CC(C)[C@H](NC(=O)CCc1ccccc1)C(=O)N[C@@H](C)C(=O)NC(CC(=O)O)C(=O)Cn1nnnc1Cc1c(Cl)cccc1Cl (stereo partly shown) :: 0.03
O=C(O)CC(NC(=O)OCc1ccccc1)C(=O)CON1C(=O)Cc2ccccc21 (stereo not shown) :: 3.1
CC(C)C(NC(=O)C(CCC(=O)O)NC(=O)OCc1ccccc1)C(=O)NC(CC(=O)O)C(=O)CNS(=O)(=O)CCc1ccccc1 (stereo not shown) :: 0.025

Below is a list of compounds. For each, state its recorded IC50.
1. O=C(O)CC(NC(=O)OCc1ccccc1)C(=O)CNS(=O)(=O)c1cccc2ccccc12 (stereo not shown)
2. CCC(CC)c1ccc(Oc2ccccc2S(=O)(=O)NC(C=O)CC(=O)O)cc1 (stereo not shown)

[174, 3.5]

---

// cross-study collection: IC50 for UniProt P29466
Answers are plain numbers, in nM.

Worked cases, answers included:
C[C@H](NC(=O)c1coc(-c2ccccc2)n1)C(=O)N[C@@H](CC(=O)O)C(=O)COc1c(F)c(F)cc(F)c1F :: 6.9
Cc1cccc(Oc2ccccc2S(=O)(=O)NC(C=O)CC(=O)O)c1C (stereo not shown) :: 13000
Cc1ccccc1Oc1c(C)cccc1S(=O)(=O)NC(C=O)CC(=O)O (stereo not shown) :: 1100

Turning now to a further molecule:
Given the molecule `O=C(O)C[C@H](NC(=O)CN1CCN(Cc2ccccc2)CC1=O)C(=O)COc1c(F)c(F)cc(F)c1F` , what is its reported IC50?
4

---

// cross-study collection: IC50 for UniProt P29466
Numbers only, in nM.

Worked cases, answers included:
CCC(C)c1ccc(Oc2ccccc2S(=O)(=O)NC(C=O)CC(=O)O)cc1C (stereo not drawn) :: 1000
Cc1cccc(S(=O)(=O)NC(C=O)CC(=O)O)c1-c1ccccc1 (stereo not drawn) :: 34000
O=C(O)C[C@H](NC(=O)CN1CCc2ccccc2C1=O)C(=O)CNS(=O)(=O)c1ccccc1 :: 586000
C[C@H](NC(=O)c1cc(-c2ccc(Cl)cc2)on1)C(=O)N[C@@H](CC(=O)O)C(=O)COc1c(F)c(F)cc(F)c1F :: 6
O=CC(CC(=O)O)NS(=O)(=O)c1ccccc1CCc1ccccc1 (stereo not drawn) :: 32000
C[C@H](NC(=O)c1cc(-c2ccccc2C(F)(F)F)on1)C(=O)N[C@@H](CC(=O)O)C(=O)COc1c(F)c(F)cc(F)c1F :: 9.2
C[C@H](NC(=O)c1cc(-c2ccccc2F)n[nH]1)C(=O)N[C@@H](CC(=O)O)C(=O)COc1c(F)c(F)cc(F)c1F :: 3.9
Cc1ccc(Oc2ccccc2S(=O)(=O)N[C@H](C=O)CC(=O)O)cc1 :: 8800

Given the compound Cc1cccc(S(=O)(=O)NC(C=O)CC(=O)O)c1Oc1ccccc1 (stereo not drawn) , what is its reported IC50?
11200

---

// cross-study collection: pIC50 for Caspase-1 (Homo sapiens)
Give bare numbers, as −log10 of the molar value.

Worked cases, answers included:
C[C@H](NC(=O)c1cc(-c2ccccc2Cl)on1)C(=O)N[C@@H](CC(=O)O)C(=O)COc1c(F)c(F)cc(F)c1F :: 8.34
CS(=O)(=O)NCC(=O)C(CC(=O)O)NC(=O)OCc1ccccc1 (stereo not shown) :: 2.74
O=C(O)C[C@H](NC(=O)CN1CCN(Cc2ccccc2)C(=O)C1)C(=O)COc1c(F)c(F)cc(F)c1F :: 8.05
Cc1ccc(S(=O)(=O)NC(C=O)CC(=O)O)c(Oc2ccccc2)c1 (stereo not shown) :: 5.77

Turning now to a further compound:
Given the compound `CC(C)c1cccc(Oc2ccccc2S(=O)(=O)N[C@H](C=O)CC(=O)O)c1` , what is its reported pIC50?
5.43

---

// cross-study collection: IC50 for Caspase-1 (Homo sapiens)
Label true when IC50 < 5 µM; otherwise false.

// below: answered compounds
C[C@H](NC(=O)C(=O)Nc1cccc(F)c1)C(=O)N[C@@H](CCC(=O)O)C(=O)COc1c(F)c(F)cc(F)c1F :: true
C[C@H](NC(=O)C(=O)Nc1ccc(OC(F)(F)F)cc1)C(=O)N[C@@H](CCC(=O)O)C(=O)COc1c(F)c(F)cc(F)c1F :: true

IC50 under 5 µM? Item: `C[C@H](NC(=O)C(=O)Nc1ccc(Cl)cn1)C(=O)N[C@@H](CCC(=O)O)C(=O)COc1c(F)c(F)cc(F)c1F`
true

IC50 under 5 µM? Item: `CCOC(=O)c1cnc2c(N)cccc2c1NCCCN1CCOCC1`
false

IC50 under 5 µM? Item: O=CC(CC(=O)O)NS(=O)(=O)c1ccccc1OCCc1cccc2ccccc12 (stereo not shown)
true

---

// cross-study collection: IC50 for Caspase-1 (Homo sapiens)
Answers are plain numbers, in µM.

Worked cases, answers included:
Cc1cccc(-c2ccccc2S(=O)(=O)NC(C=O)CC(=O)O)c1 (centres unmarked) :: 37
O=CC(CC(=O)O)NS(=O)(=O)c1ccccc1Nc1ccccc1 (centres unmarked) :: 44
O=C(O)CC(NC(=O)OCc1ccccc1)C(=O)CON1C(=O)CC2CCCCC21 (centres unmarked) :: 37
Cc1cccc(Oc2ccccc2S(=O)(=O)N[C@H](C=O)CC(=O)O)c1 :: 10.8
O=C(O)CC(NC(=O)OCc1ccccc1)C(=O)CNS(=O)(=O)c1ccccc1 (centres unmarked) :: 291
Cc1ccc(Oc2ccccc2)c(S(=O)(=O)NC(C=O)CC(=O)O)c1 (centres unmarked) :: 41
Cc1cc(Oc2ccccc2S(=O)(=O)NC(C=O)CC(=O)O)cc(C)c1C (centres unmarked) :: 7.8
C[C@H](NC(=O)c1cc(-c2ccccc2Cl)no1)C(=O)N[C@@H](CC(=O)O)C(=O)COc1c(F)c(F)cc(F)c1F :: 0.0042

Below is a list of molecules. For each, state its recorded IC50.
1. CC(C)c1ccc(Oc2ccccc2S(=O)(=O)NC(C=O)CC(=O)O)cc1 (centres unmarked)
2. O=C(O)CC(NC(=O)OCc1ccccc1)C(=O)CNS(=O)(=O)CC1CCc2ccccc21 (centres unmarked)

1. 5.3
2. 194

---

// cross-study collection: IC50 for Caspase-1 (Homo sapiens, UniProt P29466)
Give bare numbers, in nM.

O=C(O)C[C@H](NC(=O)OCc1ccccc1)C(=O)CON1C(=O)C2C3C=CC(O3)C2C1=O (stereo partly shown) :: 460
O=C(O)C[C@H](NC(=O)CN1CCN(S(=O)(=O)c2ccccc2)CC1)C(=O)COc1c(F)c(F)cc(F)c1F :: 2
O=C(O)CC(NC(=O)OCc1ccccc1)C(=O)CNS(=O)(=O)CCc1ccccc1 (stereo not shown) :: 73000
COC(=O)CC1CCCC2CC(=O)N(OCC(=O)[C@H](CC(=O)O)NC(=O)OCc3ccccc3)C12 (stereo partly shown) :: 80000

Given the molecule `C[C@H](NC(=O)c1c[nH]c(-c2ccccc2)n1)C(=O)N[C@@H](CC(=O)O)C(=O)COc1c(F)c(F)cc(F)c1F` , what is its reported IC50?
4.8
